# Tested on: SNB-75 CNS
# METHOD_DESCRIPTION: NCI tumour cell line growth inhibition, 48 h
REPORTED_ENDPOINT: TGI

COMPOUND | REPORTED_ENDPOINT | VALUE_MEASURED
CCCCCCCCCCCCCC(=S)NCCCC[C@H](NC(=O)OCc1ccccc1)C(=O)Nc1ccccc1 | TGI | > 100 µM
N/C(CC(=O)Nc1cc(C(F)(F)F)ccc1Cl)=N\O | TGI | > 100 µM
C=CC(=O)c1ccc2c(c1)OCCOCCOCCOCCOCCO2 | TGI | > 91.6 µM
CCCCCCCCCCCCC(=O)OC(c1cnco1)c1nc(C(O)CC(O)C(O)C(C)O)co1 (stereo unspecified) | TGI | 15.9 µM
C=C1C(=O)O[C@H]2[C@H]1CC/C(CNC(=O)c1c[nH]c3ccc(F)cc13)=C\CC[C@@]1(C)O[C@@H]21 | TGI | 16.2 µM

# input Look up TGI for this compound: Nc1n[nH]c(=O)[nH]1
# output > 100 µM

# input Try the compound CC(C)(C)OC(=O)NC(C)(C)C(=O)NCCC(=O)O
# output > 100 µM

# input Same thing, different compound: Cc1nn(-c2ccc(F)cc2)c2ncnc(Nc3ccc(NC(=O)Nc4ccc(Cl)c(C(F)(F)F)c4)cc3)c12
# output 5.41 µM

* * *

# System: M14 melanoma
# METHOD_DESCRIPTION: NCI tumour cell line growth inhibition, 48 h
Each item that follows carries a reported TGI.

COMPOUND | VALUE_MEASURED
COc1ccc(C2C(Cl)C(=O)N2NC(=O)c2ccc(NC(C)=O)cc2)cc1 (stereo unspecified) | > 100 µM
CCn1cc(C(c2ccc(Cl)cc2)n2ccnc2)c2cc(Br)ccc21 (stereo unspecified) | 26.7 µM
COC(=O)C(C#N)=C1c2ccccc2Oc2ccccc21 | > 100 µM
CC(=O)C(CN1CCCCC1)C(c1ccccc1)c1c(O)c2ccccc2oc1=O (stereo unspecified) | > 100 µM
Cc1sc2nc3n(c(=O)c2c1C)N=CN(c1ccccc1)C3 | > 100 µM
O=c1c2c3ccccc3[nH]c2c2cccc3c2n1CCC3 | > 100 µM
O=C(CCN1CCN(c2cnc3ccccc3n2)CC1)c1csc2ccccc12 | > 100 µM
CCCCCCCCCCCCC(=O)OC(c1cnco1)c1nc(C(O)CC(O)C(O)C(C)O)co1 (stereo unspecified) | > 63.8 µM
C=CCSC[C@H](NC(=O)COc1ccccc1)C(=O)NC(C(=O)OCc1ccc([N+](=O)[O-])cc1)=C(C)C | > 100 µM
NC(CO)Cc1cnc[nH]1 (stereo unspecified) | > 100 µM

# input Fill in: TGI of [N-]=[N+]=Nc1c(Cl)c(=O)n(-c2ccccc2)c2ccccc12 is ___
# output 36.3 µM

* * *

Measured TGI values are reported for all entries that follow.
# Test system: HOP-62 NSCLC
# METHOD_DESCRIPTION: NCI tumour cell line growth inhibition, 48 h

Consider the worked cases shown below.
COMPOUND | TGI
Cc1cc(=O)cc2sc3c(C)cccc3nc1-2 | > 100 µM
CCCN=C1CC(C)Nc2ccccc2N1 (stereo unspecified) | > 100 µM
CC1(C)CC2(C)CC1CC2O (stereo unspecified) | > 100 µM
CC(C)(C)OC(=O)NC(C)(C)C(=O)NCCC(=O)O | > 100 µM
COC(=O)C(=O)CC(=O)CCn1ncc(Cl)c(Cl)c1=O | 42.1 µM
COc1cc(-n2cc(-c3ccc(Cl)c(Cl)c3)nc2SCc2ccccc2)cc(OC)c1OC | > 100 µM
CCOC(=O)C1=C(C)Nc2ccccc2S1 | > 100 µM
C=CCSC[C@H](NC(=O)COc1ccccc1)C(=O)NC(C(=O)OCc1ccc([N+](=O)[O-])cc1)=C(C)C | > 100 µM
CCN1CCN(c2nc(NCCCNc3ccnc4cc(Cl)ccc34)c3ccccc3n2)CC1 | 4.91 µM
N#Cc1c(NC(=S)NC(=O)c2ccccc2)nc2c(c1-c1ccccc1)CCC2 | > 100 µM

--- query ---
# input Consider the compound shown here: CN(C)CC(=O)N1CCC(c2ccc(NC(=O)c3ncc(C#N)[nH]3)c(C3=CCCCC3)c2)CC1 What is its recorded TGI?
# output 19.4 µM

* * *

# System: SF-295 CNS
# METHOD_DESCRIPTION: NCI tumour cell line growth inhibition, 48 h
REPORTED_ENDPOINT: TGI (µM)
I only need the number, in µM, no unit after it.

MOLECULE | REPORTED_ENDPOINT | VALUE_MEASURED
CCn1cc(C(c2ccc(Cl)cc2)n2ccnc2)c2cc(Br)ccc21 (configuration not stated) | TGI | 23.8
O=C(c1ccc2ccccc2c1)c1c(C(F)(F)F)n([O-])c2cc(Cl)c(Cl)cc2[n+]1=O | TGI | 3.06
COC(=O)C(=O)CC(=O)CCn1ncc(Cl)c(Cl)c1=O | TGI | 23
Nc1n[nH]c2ccc([C@@H]3Nc4ccc5[nH]ncc5c4[C@H]4[C@H]5CCC(C5)[C@H]43)cc12 | TGI | 3.47
C=C1C(=O)O[C@H]2[C@H]1CC/C(CNC(=O)c1c[nH]c3ccc(F)cc13)=C\CC[C@@]1(C)O[C@@H]21 | TGI | 17

Here is the next item to consider.
# input # value lookup — system SF-295 CNS, readout TGI, item COc1cc(C(=O)NC2c3ccccc3-c3ccccc32)c(N)cc1OCc1ccccc1
# output 41

* * *

# Tested on: CCRF-CEM leukemia
# METHOD_DESCRIPTION: NCI tumour cell line growth inhibition, 48 h
REPORTED_ENDPOINT: TGI

Previously resolved entries follow.
MOLECULE | TESTED_ON | REPORTED_ENDPOINT | VALUE_MEASURED
COc1cc(-n2cc(-c3ccc(Cl)c(Cl)c3)nc2SCc2ccccc2)cc(OC)c1OC | CCRF-CEM leukemia | TGI | > 100 µM
CC12CC(c3ccccc3O1)C(C(=O)Nc1ccc(F)cc1)C(=O)N2 (stereo not drawn) | CCRF-CEM leukemia | TGI | > 100 µM
O=C(C#Cc1c[nH]c(=O)[nH]c1=O)c1ccccc1Cl | CCRF-CEM leukemia | TGI | 59.8 µM
Cc1cc2c(cc1C)[n+](=O)c(C(=O)C/C(=N/NC(=O)c1ccccc1O)C(=O)Nc1ccccc1C(C)C)c(C)n2[O-] | CCRF-CEM leukemia | TGI | 94.1 µM
[N-]=[N+]=Nc1c(Cl)c(=O)n(-c2ccccc2)c2ccccc12 | CCRF-CEM leukemia | TGI | 56.6 µM
N#CC1(c2nc3ccccc3o2)C(=O)C(=O)N(C2C3CC4CC(C3)CC2C4)C(=O)C1=O (stereo not drawn) | CCRF-CEM leukemia | TGI | > 100 µM

# input If you can, please state the reported TGI value of Cc1ccn2c3c(c(C(=O)O)c2c1)C(=O)c1ccccc1C3=O .
# output > 100 µM

# input Now the same for Cc1nn(-c2ccc(S(=O)(=O)[O-])cc2)c([O-])c1N=[N+](C)c1ccc(-c2ccc(N=Nc3ccc4c(S(=O)(=O)[O-])cc(S(=O)(=O)[O-])c(N)c4c3[O-])c([O-])c2)cc1[O-].[Cu+2].[Cu+2].[Na+]
# output > 100 µM

* * *

# System: A549 NSCLC
# METHOD_DESCRIPTION: NCI tumour cell line growth inhibition, 48 h
REPORTED_ENDPOINT: TGI

A selection of reference data follows.
COMPOUND | TGI
CCCCCCCCCCCCC(=O)OC(c1cnco1)c1nc(C(O)CC(O)C(O)C(C)O)co1 (stereo not drawn) | > 100 µM
C=CCSC[C@H](NC(=O)COc1ccccc1)C(=O)NC(C(=O)OCc1ccc([N+](=O)[O-])cc1)=C(C)C | > 100 µM
O=C(NNc1nc2c(F)cccc2n2cccc12)c1cnccn1 | 36 µM

# input Look up TGI: O=c1[nH]c2ccccc2cc1C(Cl)=C(Cl)Cl
# output > 100 µM

# input What about this compound? CSC1=Nc2ccccc2N(C)c2c1c(-c1ccccc1)nn2C
# output > 100 µM

# input Next compound up: CCC(=O)C(c1ccccc1)c1ccccn1 (stereo not drawn)
# output > 100 µM

* * *

# System: SN12C renal
# METHOD_DESCRIPTION: NCI tumour cell line growth inhibition, 48 h
REPORTED_ENDPOINT: TGI (µM)
Report only the number, with the unit µM understood.

Example entries begin here.
COMPOUND | REPORTED_ENDPOINT | VALUE_MEASURED
O=C(CSc1nc2ccc([N+](=O)[O-])cc2[nH]1)Nc1ccc(F)c(Cl)c1 | TGI | 10.7
CC(C)=CCN1CC(C)C(=O)Nc2cc(Cl)ccc21 (stereo unspecified) | TGI | 33
Cc1[nH]c(/C=C2\C(=O)Nc3ccc(S(=O)(=O)Cc4c(Cl)cccc4Cl)cc32)c(C)c1C(=O)N1CCC[C@@H]1CN1CCCC1 | TGI | 2.57
CN(C)CC(=O)N1CCC(c2ccc(NC(=O)c3ncc(C#N)[nH]3)c(C3=CCCCC3)c2)CC1 | TGI | 16.9
N#CC1=C(N)OC2=C(CSc3ccccc32)C1c1ccc(Br)cc1 (stereo unspecified) | TGI | 20.4

# input Consider the compound O=C(NNc1nc2c(F)cccc2n2cccc12)c1cnccn1 and give its measured TGI.
# output 31.7
